- Test Summary: Inhibition of recombinant CaMK2 expressed in Sf9cells using autocamtide-2/CAM as substrate after 90 mins
- Reported Conditions: sf9
Measured IC50 accompanies every entry in the list below.
Quantity Measured: IC50 (nM)

cpd_smiles=O=C(c1ccc(Oc2ccccc2)cc1)c1cc2cc(O)ccc2[nH]1 reported_relation== experimental_value=610
cpd_smiles=COc1ccc2[nH]c(C(=O)c3ccc(Oc4ccccc4)cc3)cc2c1 reported_relation=> experimental_value=10000
cpd_smiles=O=C(c1ccc(Oc2ccccc2)cc1)c1cc2c(Br)c(O)ccc2[nH]1 reported_relation== experimental_value=40
cpd_smiles=CC(C)(Oc1ccc2[nH]c(C(=O)c3ccc(Oc4ccccc4)cc3)cc2c1)C(=O)O reported_relation== experimental_value=1500
cpd_smiles=O=C(c1ccc(Oc2ccccc2)cc1)c1cc2c(Cl)c(O)c(Cl)cc2[nH]1 reported_relation== experimental_value=61
cpd_smiles=O=C(c1ccc(Oc2ccccc2)cc1)c1cc2c(OCCN3CCC(O)CC3)cccc2[nH]1 reported_relation== experimental_value=420
cpd_smiles=O=C(c1ccc(Oc2ccccc2)cc1)c1cc2c(OCCN3CCNCC3)cccc2[nH]1 reported_relation== experimental_value=270
cpd_smiles=NCCOc1cccc2[nH]c(C(=O)c3ccc(Oc4ccccc4)cc3)cc12 reported_relation== experimental_value=2600
cpd_smiles=O=C(c1ccc(Oc2ccccc2)cc1)c1cc2c(OCCN3CCCCC3)cccc2[nH]1 reported_relation== experimental_value=820
cpd_smiles=Cc1c(O)ccc2[nH]c(C(=O)c3ccc(Oc4ccccc4)cc3)cc12 reported_relation== experimental_value=1300
cpd_smiles=O=C(c1ccc(Oc2ccccc2)cc1)c1cc2c(Br)c(O)c(Br)cc2[nH]1 reported_relation== experimental_value=12
cpd_smiles=O=C(c1ccc(Oc2ccccc2)cc1)c1cc2c(Cl)c(O)ccc2[nH]1 reported_relation== experimental_value=640
cpd_smiles=CCNCCOc1ccc2[nH]c(C(=O)c3ccc(Oc4ccccc4)cc3)cc2c1 reported_relation== experimental_value=1500
cpd_smiles=O=C(c1ccc(Oc2ccccc2)cc1)c1cc2c(OCCCN3CCCCC3)cccc2[nH]1 reported_relation== experimental_value=800
cpd_smiles=O=C(O)COc1ccc2[nH]c(C(=O)c3ccc(Oc4ccccc4)cc3)cc2c1 reported_relation== experimental_value=510
cpd_smiles=CCNCCOc1cccc2[nH]c(C(=O)c3ccc(Oc4ccccc4)cc3)cc12 reported_relation== experimental_value=1100

Cited source for all entries: ChEMBL document CHEMBL2203284
